# target entity: acetylcholinesterase (AChE), human recombinant (Homo sapiens, UniProt P22303)
# Sequence (P22303 32-614): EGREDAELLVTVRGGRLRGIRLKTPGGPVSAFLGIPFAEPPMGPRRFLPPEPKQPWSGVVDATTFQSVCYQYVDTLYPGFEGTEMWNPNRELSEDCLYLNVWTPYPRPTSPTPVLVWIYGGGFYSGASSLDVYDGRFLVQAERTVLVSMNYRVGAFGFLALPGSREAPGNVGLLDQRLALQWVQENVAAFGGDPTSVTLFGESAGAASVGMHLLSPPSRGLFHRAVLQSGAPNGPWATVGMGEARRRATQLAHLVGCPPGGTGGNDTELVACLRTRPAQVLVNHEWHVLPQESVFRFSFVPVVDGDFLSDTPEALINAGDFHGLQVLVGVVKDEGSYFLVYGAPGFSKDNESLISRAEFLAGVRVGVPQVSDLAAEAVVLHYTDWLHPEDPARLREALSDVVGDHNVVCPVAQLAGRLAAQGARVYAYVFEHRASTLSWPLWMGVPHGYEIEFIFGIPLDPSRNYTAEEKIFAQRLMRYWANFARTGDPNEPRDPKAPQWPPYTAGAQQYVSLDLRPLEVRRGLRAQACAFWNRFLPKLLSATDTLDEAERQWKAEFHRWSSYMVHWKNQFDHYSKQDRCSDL
# protocol description: biochemical
# condition context: pre-incubation of the enzyme with inhibitor, read-out: IC50 (AChE, mE, hr)
The threshold is 40 µM. Values of IC50 beneath it are tagged fulfilled; values meeting or exceeding it are tagged not fulfilled.

Reference set (4 entries):
COc1cc2c(cc1OC)C(=O)C(CCCCN1CCC34C=CC(O)C[C@H]3Oc3c(OC)ccc(c34)C1)C2 (some centres unmarked) [SPH-1335] :: fulfilled
C#CC[N+]1(C)CCC23C=C[C@@H](O)C[C@H]2Oc2c(OC)cc(C)c(c23)C1 (some centres unmarked) :: not fulfilled
C#CC[N+]1(C)CC[C@@]23C=C[C@@H](O)C[C@@H]2Oc2c(OC)cc(C)c(c23)C1 (mixture of isomers) :: not fulfilled
COc1ccc2c3c1O[C@@H]1CC(O)C=CC31CCN(C)C2C#N (some centres unmarked) [SPH-1291] :: fulfilled

Take the compound COc1ccc2c3c1O[C@@H]1CC(O)C=CC31CCN(C(N)=O)C2 (some centres unmarked) and say whether its IC50 is less than 40 µM. not fulfilled

Dear colleague, could you confirm whether IC50 of COc1cc(C)c2c3c1O[C@@H]1CC(O)C=CC31CCN(C)C2C#N (some centres unmarked) falls below 40 µM? Thanks. not fulfilled

Report whether reported IC50 is lower than 40 µM (strictly) for COc1ccc2c3c1O[C@@H]1CC(O)C=CC31CCN(C)C2C (some centres unmarked) fulfilled

Just wondering, is IC50 of COc1cc(C)c2c3c1O[C@@H]1C[C@H](O)C=CC31CC[N+](C)(Cc1ccccc1)C2 (some centres unmarked) below 40 µM? not fulfilled

---

# target entity: acetylcholinesterase (AChE), human recombinant (Homo sapiens, UniProt P22303)
# protocol description: biochemical
# condition context: pre-incubation of the enzyme with inhibitor, read-out: IC50 (AChE, mE, hr)
reported property: IC50 (µM)
Respond with the bare value in µM.

Guide cases for IC50, answers given:
COc1ccc2c3c1O[C@@H]1C[C@H](O)C=CC31CCN(CCC(=O)NC(C)C)C2 (stereo partly drawn) :: 54.5
COc1ccc2c3c1O[C@@H]1C[C@H](O)C=CC31CCN(c1ncccn1)C2 (stereo partly drawn) :: 38
COc1ccc2c3c1O[C@@H]1C[C@H](O)C=CC31CCN(C(=O)Nc1ccc(Cl)cc1)C2 (stereo partly drawn) :: 24
COc1ccc2c3c1O[C@H]1CC(O)C=C[C@@]31CC[N+](C)(Cc1ccc(Br)cc1)C2 (single isomer, unassigned; (-)) [SPH-1184, hemihydrate] :: 0.2
COc1ccc2c3c1O[C@@H]1CC(O)C=CC31CCN(CCCN1CC3CC1CN3c1ccc(F)cc1)C2 (stereo partly drawn) :: 3

// assay acetylcholinesterase (AChE), human recombinant (Homo sapiens, UniProt P22303), entry COc1ccc2c3c1O[C@@H]1C[C@H](O)C=CC31CCN(C=C(C#N)C#N)C2 (stereo partly drawn) , IC50 value = 28.5

Lab note: compound COC(=O)/C=C(\C(=O)OC)N1CCC23C=C[C@@H](O)C[C@H]2Oc2c(OC)ccc(c23)C1 (stereo partly drawn) tested on acetylcholinesterase (AChE), human recombinant (Homo sapiens, UniProt P22303); recorded IC50 was 140

COc1cc2c(cc1OC)C(=O)C(CCCCCN1CCC34C=CC(O)C[C@H]3Oc3c(OC)ccc(c34)C1)C2 (stereo partly drawn) [SPH-1375] on acetylcholinesterase (AChE), human recombinant (Homo sapiens, UniProt P22303) gives IC50 = 0.023

---

# target entity: acetylcholinesterase (AChE), human recombinant (Homo sapiens)
# protocol description: biochemical
# condition context: pre-incubation of the enzyme with inhibitor, read-out: IC50 (AChE, mE, hr)
reported property: pIC50
Schema: pIC50 number; meaning minus log10 of the concentration expressed in molar units.

COc1ccc2c3c1O[C@@H]1CC(O)C=CC31CCN(CCCN1CCCCC1)C2 (stereo partly shown) [SPH-1286] :: 6.52
COc1ccc2c3c1O[C@@H]1CC(O)C=CC31CCN(CCCO)C2 (stereo partly shown) :: 5.55
COc1ccc2c3c1O[C@@H]1C[C@H](O)C=CC31CCN(CCCO)C2 (stereo partly shown) :: 5.14
COc1ccc2c3c1O[C@@H]1C[C@H](O)C=CC31CCN(CCCN1CC3CC1CN3c1ccc(F)cc1)C2 (stereo partly shown) :: 5.28
COc1ccc2c3c1O[C@@H]1CC(O)C=CC31CCN(C)C2C#N (stereo partly shown) [SPH-1290] :: 5.92
COc1ccc2c3c1O[C@@H]1CC(O)C=CC31CCN(CC1CC1)C2 (stereo partly shown) :: 6.15
COc1ccc2c3c1O[C@@H]1C[C@H](O)C=CC31CCN(C(=O)Nc1ccccc1)C2 (stereo partly shown) :: 4.15
COc1ccc2c3c1O[C@@H]1C[C@H](O)C=CC31CCN(C(=O)Nc1ccc3ccccc3c1)C2 (stereo partly shown) :: 4.44

Note to self: pIC50 recorded for COc1ccc2c3c1O[C@@H]1C[C@H](O)C=CC31CCN(C(=O)NC(C)C)C2 (stereo partly shown) was 5.59

Kindly note the recorded pIC50 for COc1ccc2c3c1O[C@@H]1CC(O)C=CC31CCN(C(=O)NC(C)C)C2 (stereo in doubt) , which is 5.38
